Test system: Caco (colon)
Assay: Cytotoxicity on human cells, automated nuclei counting: Caco
Format: cell-based
Details: exposed 24 h to 48 h, 0.1 to 25 μM
PROPERTY MEASURED: log10 IC50 (log10 of the value in µM)
Could you please treat all values as log10 of IC50 in µM?

Give its log10 IC50 value. Item: O=C(Nc1ccc(Br)cn1)Nc1cccc2c1C1CC3(CCN1C2=O)SCCS3 (stereo not shown)
0.70

// query: COC1CCN2C(=O)c3cccc(NC(=O)Nc4cccc(C)n4)c3C2C1 (stereo not shown)
0.78

// query: O=C(Nc1cnccn1)Nc1cccc2c1C1CC3(CCN1C2=O)OCCO3 (stereo not shown)
0.70

====

Reported IC50 values, DYRK1A (Homo sapiens, UniProt Q13627).

Reference set (6 entries):
{"columns": ["COMPOUND", "IC50"],
 "data": [
  ["O=C(Nc1cccc(F)n1)Nc1cccc2c1C1CCCCN1C2=O (stereo not drawn) [Compound 23]", "3.5 µM"],
  ["O=C(Nc1csc(-c2ccncc2)n1)Nc1cccc2c1C1CCCCN1C2=O (stereo not drawn) [Compound 37]", "2.4 µM"],
  ["COc1cc(NC(=O)Nc2cccc3c2C2CC(O)CCN2C3=O)nc2ccccc12 (stereo not drawn) [Compound 109]", "> 10 µM"],
  ["O=C(Nc1cc(-c2ccccc2)on1)Nc1cccc2c1C1CCCCN1C2=O (stereo not drawn) [Compound 25]", "> 10 µM"],
  ["O=C1c2cccc(NC(=S)Nc3cc[nH]n3)c2C2CCCCN12 (stereo not drawn) [Compound 64]", "≥ 100 µM"],
  ["O=C1c2cccc(NC(=S)Nc3ccccn3)c2C2CC3(CCN12)SCCS3 (stereo not drawn) [Compound 70]", "22 µM"]
]}

Any idea what IC50 came out for O=C1c2cccc(NC(=S)Nc3cnccn3)c2C2CCCCN12 (stereo not drawn) [Compound 63] on DYRK1A (Homo sapiens, UniProt Q13627)?
> 100 µM

// query: O=C1c2cccc(NC(=S)Nc3cc[nH]n3)c2C2CC3(CCN12)SCCS3 (stereo not drawn) [Compound 71]
> 10 µM

====

Test system: fibroblast
Experiment: Cytotoxicity on human cells, automated nuclei counting: fibroblast
Assay type: cell-based
Conditions: exposed 24 h to 48 h, 0.1 to 25 μM
Protocol: Cytotoxicity: This method is based on an automated imaging analysis. 4.10^3 cells were cultivated on 96-well plates and left for 24 hours so as to bind, to spread and proliferate. All the cell lines were cultivated in a DMEM or RPMI (Invitrogen) medium. All these media were completed with antibiotics (penicillin-streptomycin) (Lonza) and 10% by volume of fetal calf serum (Invitrogen). The cells were cultivated at 37° C. with 5% of CO2. […]
PROPERTY MEASURED: log10(IC50) (log10 of the value in µM)
Could you please treat all values as log10 of IC50 in µM?

Reference set (10 entries):
{"columns": ["COMPOUND", "log10(IC50)"],
 "data": [
  ["O=C(Nc1ncccn1)Nc1cccc2c1C1CCCCN1C2=O (stereo not shown)", 0.40],
  ["O=C(Nc1cnccn1)Nc1cccc2c1C1C[C@@H](O)CCN1C2=O (stereo partly shown)", 1.08],
  ["COC1CCN2C(=O)c3cccc(NC(=O)Nc4cnc(C)cn4)c3C2C1 (stereo not shown)", 0.70],
  ["Cc1cccc(NC(=O)Nc2cccc3c2C2CC4(CCN2C3=O)SCCS4)n1 (stereo not shown)", 0.30],
  ["O=C(Nc1cccc(Br)n1)Nc1cccc2c1C1CC3(CCN1C2=O)SCCS3 (stereo not shown)", 0.95],
  ["O=C(Nc1ccccn1)Nc1cccc2c1C1CC3(CCN1C2=O)OCCO3 (stereo not shown)", 0.48],
  ["O=C1c2cccc(NC(=S)Nc3ncccc3Br)c2C2CC3(CCN12)SCCS3 (stereo not shown)", 1.40],
  ["COC1CCN2C(=O)c3cccc(NC(=O)Nc4ccn(C)n4)c3C2C1 (stereo not shown)", 1.18],
  ["Cc1cccc(NC(=O)Nc2cccc3c2C2CC4(CCN2C3=O)OCCO4)n1 (stereo not shown)", 1.30],
  ["O=C(Nc1cccc2c1C1CCCCN1C2=O)Nc1nc(Cl)c(Cl)c(Cl)c1Cl (stereo not shown)", -0.30]
]}

Any idea what log10(IC50) came out for O=C1c2cccc(NC(=S)Nc3cc[nH]n3)c2C2CC3(CCN12)SCCS3 (stereo not shown) on fibroblast?
1.40

// query: Cc1cc(NC(=O)Nc2cccc3c2C2CCCCN2C3=O)no1 (stereo not shown)
1.08

Source: patent US20120095022A1
